assay: in vivo; details: rat, Quinine serum level
endpoint-label: concentration at 9 h

Measured concentration at 9 h, C=C[C@H]1C[N@@]2CC[C@H]1C[C@H]2[C@H](O)c1ccnc2ccc(OC)cc12 [Quinine] : 1800 ng/mL
